Tested on: barnyardgrass
assay info: Test A pre-/postemergence herbicide test
Type: in vivo, Echinochloa crus-galli
measurement context: Postemergence, 500 g ai/ha; 0 to 100 scale (0 no effect, 100 complete control)
measured parameter: Plant response rating, Barnyardgrass
Respond using a number only.

Enquiry: If you can, please state the reported Plant response rating, Barnyardgrass value of O=C1NCC(c2ccc(Br)c(Br)c2)C1C(=O)Nc1ccc(F)cc1F (centres unmarked) [Compound 340] .
Return: 50

---

List of Plant response rating, Crabgrass, Large values.
System: crabgrass, large
assay info: Test C pre-/postemergence herbicide test
Assay type: in vivo, Digitaria sanguinalis
measurement context: Postemergence, 31 g ai/ha; scale 0 to 100 (0 no effect, 100 complete control)
// return a plain number; no unit text

[
  {
    "molecule": "O=C1NC[C@H](c2cccc(C(F)(F)F)c2)[C@H]1C(=O)Nc1cccc(F)c1F [Compound 206]",
    "Plant response rating, Crabgrass, Large": 45
  },
  {
    "molecule": "O=C1NCC(c2ccc(F)cc2)C1C(=O)Nc1ccc(F)c(F)c1F (racemic) [Compound 120]",
    "Plant response rating, Crabgrass, Large": 55
  },
  {
    "molecule": "O=C1NCC(c2cccc(OC(F)F)c2)C1C(=O)Nc1cccc(F)c1F (stereo not shown) [Compound 224]",
    "Plant response rating, Crabgrass, Large": 0
  }
]

Let's switch to this molecule now.
Enquiry: Recorded Plant response rating, Crabgrass, Large of O=C1NCC(c2cccc(OC(F)F)c2)C1C(=O)Nc1ccccc1F (stereo not shown) [Compound 323] , please.
Return: 0
